Biological target: PI3kα (Homo sapiens)
Sequence (P42336 whole entry): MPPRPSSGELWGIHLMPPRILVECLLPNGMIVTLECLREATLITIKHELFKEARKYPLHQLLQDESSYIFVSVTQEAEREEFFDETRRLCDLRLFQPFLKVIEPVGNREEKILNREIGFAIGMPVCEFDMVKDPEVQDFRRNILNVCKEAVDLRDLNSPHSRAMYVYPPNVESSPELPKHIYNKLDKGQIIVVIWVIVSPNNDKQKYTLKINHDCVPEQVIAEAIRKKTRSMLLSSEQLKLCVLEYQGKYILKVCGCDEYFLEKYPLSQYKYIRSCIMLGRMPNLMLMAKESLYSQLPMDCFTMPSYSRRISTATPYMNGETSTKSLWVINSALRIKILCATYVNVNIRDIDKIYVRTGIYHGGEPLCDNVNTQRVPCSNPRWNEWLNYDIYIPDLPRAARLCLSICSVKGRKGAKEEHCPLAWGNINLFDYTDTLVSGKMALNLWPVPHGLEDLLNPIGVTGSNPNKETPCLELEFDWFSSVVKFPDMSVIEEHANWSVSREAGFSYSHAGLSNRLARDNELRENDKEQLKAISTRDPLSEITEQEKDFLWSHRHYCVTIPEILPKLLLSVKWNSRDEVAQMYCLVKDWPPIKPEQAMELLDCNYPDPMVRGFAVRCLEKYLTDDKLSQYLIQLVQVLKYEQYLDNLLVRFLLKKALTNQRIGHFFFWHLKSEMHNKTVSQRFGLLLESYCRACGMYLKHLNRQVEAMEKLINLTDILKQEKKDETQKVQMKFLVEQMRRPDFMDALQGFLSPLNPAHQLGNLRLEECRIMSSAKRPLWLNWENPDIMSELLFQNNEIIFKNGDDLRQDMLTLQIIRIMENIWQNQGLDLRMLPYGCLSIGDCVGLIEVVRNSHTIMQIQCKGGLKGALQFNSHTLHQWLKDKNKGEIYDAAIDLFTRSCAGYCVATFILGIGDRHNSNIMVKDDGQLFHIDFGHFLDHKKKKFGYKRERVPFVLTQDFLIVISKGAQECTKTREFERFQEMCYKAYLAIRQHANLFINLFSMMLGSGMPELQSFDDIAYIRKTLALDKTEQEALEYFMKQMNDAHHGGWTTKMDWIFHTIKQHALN
Sequence (P27986 whole entry partner): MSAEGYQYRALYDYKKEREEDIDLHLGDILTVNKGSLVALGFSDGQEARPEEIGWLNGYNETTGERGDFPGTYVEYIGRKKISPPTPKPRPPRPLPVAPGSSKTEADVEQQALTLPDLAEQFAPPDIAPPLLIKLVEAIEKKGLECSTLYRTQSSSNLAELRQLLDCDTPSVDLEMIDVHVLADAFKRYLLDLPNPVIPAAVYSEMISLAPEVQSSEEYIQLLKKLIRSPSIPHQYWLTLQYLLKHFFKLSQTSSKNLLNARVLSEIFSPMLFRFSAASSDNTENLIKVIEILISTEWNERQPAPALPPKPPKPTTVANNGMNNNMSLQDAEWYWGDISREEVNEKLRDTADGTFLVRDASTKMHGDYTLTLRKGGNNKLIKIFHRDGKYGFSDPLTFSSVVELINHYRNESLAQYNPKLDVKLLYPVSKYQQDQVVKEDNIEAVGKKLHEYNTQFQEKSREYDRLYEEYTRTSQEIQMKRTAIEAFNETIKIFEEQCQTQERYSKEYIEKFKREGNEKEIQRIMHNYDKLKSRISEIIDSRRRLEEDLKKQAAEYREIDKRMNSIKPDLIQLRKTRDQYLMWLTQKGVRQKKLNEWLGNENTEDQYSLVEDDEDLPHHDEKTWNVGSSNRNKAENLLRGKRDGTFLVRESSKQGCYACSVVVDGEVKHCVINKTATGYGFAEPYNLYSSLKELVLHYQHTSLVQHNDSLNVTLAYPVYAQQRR
Assay: Fluorescent (HTRF) determination of PI3 kinase enzyme activity, PI3Kα
Type: biochemical
Conditions: 1 uM
Assay endpoint: % inhibition (PI3kα) 1 uM

Some compounds with known % inhibition (PI3kα) 1 uM results, for comparison:
Cc1cc(-c2nn(C(C)c3oc4cccc(F)c4c(=O)c3-c3cccc(F)c3)c3ncnc(N)c23)ccc1OC(C)C (stereo not drawn) [Example 50] ... D (D=0 to 25%)
Cc1cc(-c2nn(C(C)c3oc4cccc(F)c4c(=O)c3-c3cccc(F)c3)c3ncnc(N)c23)ccc1OC(C)C (single isomer, unassigned; (+)) [Example 114] ... D (D=0 to 25%)
CC(C)Oc1ccc(-c2nn(C(C)c3oc4cccc(F)c4c(=O)c3-c3cccc(F)c3)c3ncnc(N)c23)cc1F (single isomer, unassigned; (+)) [Example 7] ... C (C=>25 to 50%)
CC(C)Oc1ccc(-c2nn(C(C)c3oc4cccc(F)c4c(=O)c3-c3ccc(F)cc3)c3ncnc(N)c23)cc1F (racemic) [Example 94] ... C (C=>25 to 50%)
CC(c1oc2cccc(F)c2c(=O)c1-c1cccc(F)c1)n1nc(-c2ccc(N3CCOCC3)c(F)c2)c2c(N)ncnc21 (racemic) [Example 70] ... D (D=0 to 25%)

Asked: GET /values?readout=% inhibition (PI3kα) 1 uM&item= CC(C)Oc1ccc(-c2nn(C(C)c3oc4cccc(F)c4c(=O)c3-c3ccccc3)c3ncnc(N)c23)cc1F (stereo not drawn) [Example 13]
Given back: D (D=0 to 25%)

* * *

Target: PI3kγ (Homo sapiens)
Sequence (P48736 whole entry): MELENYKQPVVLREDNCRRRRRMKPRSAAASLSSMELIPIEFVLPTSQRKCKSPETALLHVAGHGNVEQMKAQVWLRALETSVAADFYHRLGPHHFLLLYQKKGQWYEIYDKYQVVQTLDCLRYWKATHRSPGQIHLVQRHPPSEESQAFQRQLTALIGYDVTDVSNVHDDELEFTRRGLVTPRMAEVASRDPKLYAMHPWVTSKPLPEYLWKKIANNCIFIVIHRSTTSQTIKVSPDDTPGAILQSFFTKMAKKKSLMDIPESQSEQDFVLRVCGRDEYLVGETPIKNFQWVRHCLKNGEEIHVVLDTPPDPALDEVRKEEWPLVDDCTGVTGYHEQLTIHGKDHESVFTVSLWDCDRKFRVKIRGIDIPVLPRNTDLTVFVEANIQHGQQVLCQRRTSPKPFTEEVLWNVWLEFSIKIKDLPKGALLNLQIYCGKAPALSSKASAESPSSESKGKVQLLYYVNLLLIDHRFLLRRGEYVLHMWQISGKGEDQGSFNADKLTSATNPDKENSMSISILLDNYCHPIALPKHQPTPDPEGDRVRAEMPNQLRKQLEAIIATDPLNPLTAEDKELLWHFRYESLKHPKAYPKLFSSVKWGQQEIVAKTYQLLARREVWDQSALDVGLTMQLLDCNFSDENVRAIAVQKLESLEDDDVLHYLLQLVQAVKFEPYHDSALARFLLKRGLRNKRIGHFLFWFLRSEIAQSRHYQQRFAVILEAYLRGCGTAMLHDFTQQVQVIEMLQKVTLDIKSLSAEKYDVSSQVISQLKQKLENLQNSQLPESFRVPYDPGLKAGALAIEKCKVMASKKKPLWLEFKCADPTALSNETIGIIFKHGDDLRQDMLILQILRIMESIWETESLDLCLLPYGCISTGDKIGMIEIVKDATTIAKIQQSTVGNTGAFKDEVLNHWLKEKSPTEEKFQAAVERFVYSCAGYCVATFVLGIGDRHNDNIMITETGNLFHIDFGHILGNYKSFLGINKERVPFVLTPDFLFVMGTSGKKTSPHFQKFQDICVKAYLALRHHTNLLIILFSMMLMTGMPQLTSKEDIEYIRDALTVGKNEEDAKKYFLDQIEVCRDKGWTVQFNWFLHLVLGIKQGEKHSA
Assay: Fluorescent (HTRF) determination of PI3 kinase enzyme activity, PI3Kγ
Format: biochemical
Conditions: 100 nM (Examples 60-137)
Assay endpoint: inhibition at 0.1 µM

Some compounds with known inhibition at 0.1 µM results, for comparison:
C[C@H](Nc1nc(F)nc2[nH]cnc12)c1oc2cccc(F)c2c(=O)c1-c1cccc(F)c1 (racemic) ... 25 to 50%
Cc1ccc(-c2nn(C(C)c3oc4cccc(F)c4c(=O)c3-c3cccc(F)c3)c3ncnc(N)c23)s1 (stereo not shown) ... 25 to 50%
CCC(c1oc2cccc(F)c2c(=O)c1-c1cccc(F)c1)n1nc(-c2ccc(OC(C)C)c(F)c2)c2c(N)ncnc21 (stereo not shown) ... 50 to 75%
CC(c1oc2cccc(F)c2c(=O)c1-c1cccc(F)c1)n1nc(-c2ccc(N3CCOCC3)c(Cl)c2)c2c(N)ncnc21 (single isomer, unassigned) ... 0 to 25%
CC(c1oc2cccc(F)c2c(=O)c1-c1ccc(F)cc1)n1nc(-c2ccc(N3CCOCC3)c(F)c2)c2c(N)ncnc21 (stereo not shown) ... 0 to 25%
CC(c1oc2cccc(F)c2c(=O)c1-c1ccccc1)n1nc(-c2ccc(OC(F)F)c(F)c2)c2c(N)ncnc21 (racemic) [Example 102] ... 25 to 50%

# evaluate next
Asked: GET /values?readout=inhibition at 0.1 µM&item= CC(C)C(=O)Nc1ccc(-c2nn(C(C)c3oc4cccc(F)c4c(=O)c3-c3cccc(F)c3)c3ncnc(N4CCOCC4)c23)cc1F (stereo not shown)
Given back: 0 to 25%

* * *

Counter-ions that a name gives are not always drawn.
Assay endpoint: melting point

Cc1c2ccc(-c3nn(C(C)c4oc5cccc(F)c5c(=O)c4-c4cccc(F)c4)c4ncnc(N)c34)cc2nn1C (centres unmarked) ... 232 to 235 °C
CC(C)Oc1ncc(-c2nn(C(C)c3oc4cccc(F)c4c(=O)c3-c3cccc(F)c3)c3ncnc(N)c23)cn1 (centres unmarked) ... 230 to 232 °C
Cc1nc(C)c(-c2nn(C(C)c3oc4cccc(F)c4c(=O)c3-c3cccc(F)c3)c3ncnc(N)c23)s1 (centres unmarked) ... 252 to 255 °C
CC(c1oc2cccc(F)c2c(=O)c1-c1cn[nH]c1)n1nc(-c2ccc(OC(F)F)c(F)c2)c2c(N)ncnc21 (centres unmarked) ... 135 to 138 °C
CNc1nnc(-c2ccc(-c3nn(C(C)c4oc5cccc(F)c5c(=O)c4-c4cccc(F)c4)c4ncnc(N)c34)cc2)s1 (centres unmarked) ... 199 to 201 °C

Asked: GET /values?readout=melting point&item= CC(C)C(=O)Nc1ccc(-c2nn(C(C)c3oc4cccc(F)c4c(=O)c3-c3cccc(F)c3)c3ncnc(N)c23)cc1F (centres unmarked)
Given back: 249 to 252 °C

Asked: Please do the same for CC(c1oc2cccc(F)c2c(=O)c1-c1cccc(F)c1)n1cnc2c(N3CCOCC3)ncnc21 (centres unmarked) (as salt: potassium) as well.
Given back: 239 to 241 °C

Asked: Please do the same for CC(c1oc2cccc(F)c2c(=O)c1-c1cccc(F)c1)n1nc(-c2ccc(S(=O)(=O)NC3CC3)cc2)c2c(N)ncnc21 (centres unmarked) as well.
Given back: 225 to 228 °C

Asked: Please do the same for CC(c1oc2cccc(F)c2c(=O)c1-c1cccc(F)c1)n1nc(N2CCCC2)c2c(N)ncnc21 (centres unmarked) as well.
Given back: 203 to 205 °C

Asked: Please do the same for CC(Nc1ncnc2[nH]cnc12)c1oc2cccc(F)c2c(=O)c1-c1cccc(F)c1 (single isomer, unassigned; (+)) [Example 68] as well.
Given back: 194 to 197 °C

Asked: Please do the same for Cc1nn(C)c2cc(-c3nn(C(C)c4oc5cccc(F)c5c(=O)c4-c4cccc(F)c4)c4ncnc(N)c34)ccc12 (centres unmarked) as well.
Given back: 220 to 224 °C

Asked: Please do the same for CNc1ncnc2c1ncn2C(C)c1oc2cccc(F)c2c(=O)c1-c1cccc(F)c1 (centres unmarked) (as salt: potassium) as well.
Given back: 207 to 209 °C

* * *

Target: PI3kβ (Homo sapiens, UniProt P42338)
Sequence (P42338 whole entry): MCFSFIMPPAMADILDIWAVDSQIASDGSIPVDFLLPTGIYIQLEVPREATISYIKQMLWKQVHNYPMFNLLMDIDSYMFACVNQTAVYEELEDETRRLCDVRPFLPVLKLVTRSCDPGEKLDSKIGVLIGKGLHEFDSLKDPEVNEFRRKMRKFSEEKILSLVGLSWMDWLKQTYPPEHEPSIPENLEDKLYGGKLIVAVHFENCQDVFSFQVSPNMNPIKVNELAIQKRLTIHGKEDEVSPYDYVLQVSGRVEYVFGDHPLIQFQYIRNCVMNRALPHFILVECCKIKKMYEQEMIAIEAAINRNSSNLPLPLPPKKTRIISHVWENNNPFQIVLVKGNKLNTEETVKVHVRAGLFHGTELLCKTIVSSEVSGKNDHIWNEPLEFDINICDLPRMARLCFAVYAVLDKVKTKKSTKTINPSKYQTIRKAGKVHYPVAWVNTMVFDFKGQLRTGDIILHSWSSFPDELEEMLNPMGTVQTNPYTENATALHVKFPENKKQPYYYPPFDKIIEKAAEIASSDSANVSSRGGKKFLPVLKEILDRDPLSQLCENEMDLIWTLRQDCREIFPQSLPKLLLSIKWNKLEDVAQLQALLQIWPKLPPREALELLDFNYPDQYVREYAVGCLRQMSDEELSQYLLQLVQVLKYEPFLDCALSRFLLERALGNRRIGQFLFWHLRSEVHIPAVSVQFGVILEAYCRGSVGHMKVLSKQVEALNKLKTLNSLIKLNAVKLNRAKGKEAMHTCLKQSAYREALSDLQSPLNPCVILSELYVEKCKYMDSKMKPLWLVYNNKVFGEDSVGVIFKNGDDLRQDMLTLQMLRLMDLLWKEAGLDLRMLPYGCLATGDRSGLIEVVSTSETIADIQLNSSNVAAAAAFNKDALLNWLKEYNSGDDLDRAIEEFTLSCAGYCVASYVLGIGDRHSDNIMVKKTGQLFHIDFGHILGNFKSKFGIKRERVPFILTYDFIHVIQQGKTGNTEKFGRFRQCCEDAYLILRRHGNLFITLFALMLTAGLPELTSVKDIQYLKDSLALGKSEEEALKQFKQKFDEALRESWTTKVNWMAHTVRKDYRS
Sequence (P27986 whole entry partner): as the sequence (P27986 whole entry partner) above
Test: Fluorescent (HTRF) determination of PI3 kinase enzyme activity, PI3Kβ
Type: biochemical
Conditions: 1 uM
Assay endpoint: inhibition at 1 µM

CC(c1oc2cccc(F)c2c(=O)c1-c1cccc(F)c1)n1nc(-c2ccc(N3CCOCC3)c(Cl)c2)c2c(N)ncnc21 (single isomer, unassigned) [Example 127] ... 50 to 75%
CC(C)c1n[nH]c2cc(-c3nn(C(C)c4oc5cccc(F)c5c(=O)c4-c4cccc(F)c4)c4ncnc(N)c34)ccc12 (stereo not shown) [Example 20] ... 25 to 50%
CC(=O)c1ccc(-c2nn(C(C)c3oc4cccc(F)c4c(=O)c3-c3cccc(F)c3)c3ncnc(N)c23)cc1F (stereo not shown) [Example 124] ... 0 to 25%
Nc1ncnc2c1c(-c1cc(O)cc(F)c1)nn2Cc1oc2cccc(F)c2c(=O)c1-c1cccc(F)c1 [Example 5] ... 0 to 25%
CNc1nnc(-c2ccc(-c3nn(C(C)c4oc5cccc(F)c5c(=O)c4-c4cccc(F)c4)c4ncnc(N)c34)cc2)s1 (stereo not shown) [Example 54] ... 25 to 50%

Asked: GET /values?readout=inhibition at 1 µM&item= CC(c1oc2cccc(F)c2c(=O)c1-c1ccc(F)cc1)n1cnc2c(N3CCOCC3)ncnc21 (stereo not shown) [Example 108]
Given back: 0 to 25%

Asked: Please do the same for CCc1nn(C(C)c2oc3cccc(F)c3c(=O)c2-c2cccc(F)c2)c2ncnc(N)c12 (stereo not shown) [Example 34] as well.
Given back: 25 to 50%

* * *

Molecular target: PI3kβ (Homo sapiens)
Assay: Fluorescent (HTRF) determination of PI3 kinase enzyme activity, PI3Kβ
Format: biochemical
Conditions: 1 uM
Assay endpoint: inhibition at 1 µM

CC(c1oc2cccc(F)c2c(=O)c1-c1cccc(F)c1)n1nc(-c2ccc3c(c2)CNC3=O)c2c(N)ncnc21 (stereo not shown) ... 25 to 50%
CC(c1oc2cccc(F)c2c(=O)c1-c1cccc(F)c1)n1cnc2c(N(C)C)ncnc21 (single isomer, unassigned) [Example 130] ... 25 to 50%
Cc1nn(C)c2cc(-c3nn(C(C)c4oc5cccc(F)c5c(=O)c4-c4cccc(F)c4)c4ncnc(N)c34)ccc12 (stereo not shown) ... 25 to 50%

# evaluate next
Asked: GET /values?readout=inhibition at 1 µM&item= COc1cccc2oc(Cn3nc(-c4ccc(OC(C)C)c(F)c4)c4c(N)ncnc43)c(-c3cccc(F)c3)c(=O)c12
Given back: 0 to 25%

* * *

Biological target: PI3kδ (Homo sapiens)
Sequence (O00329 whole entry): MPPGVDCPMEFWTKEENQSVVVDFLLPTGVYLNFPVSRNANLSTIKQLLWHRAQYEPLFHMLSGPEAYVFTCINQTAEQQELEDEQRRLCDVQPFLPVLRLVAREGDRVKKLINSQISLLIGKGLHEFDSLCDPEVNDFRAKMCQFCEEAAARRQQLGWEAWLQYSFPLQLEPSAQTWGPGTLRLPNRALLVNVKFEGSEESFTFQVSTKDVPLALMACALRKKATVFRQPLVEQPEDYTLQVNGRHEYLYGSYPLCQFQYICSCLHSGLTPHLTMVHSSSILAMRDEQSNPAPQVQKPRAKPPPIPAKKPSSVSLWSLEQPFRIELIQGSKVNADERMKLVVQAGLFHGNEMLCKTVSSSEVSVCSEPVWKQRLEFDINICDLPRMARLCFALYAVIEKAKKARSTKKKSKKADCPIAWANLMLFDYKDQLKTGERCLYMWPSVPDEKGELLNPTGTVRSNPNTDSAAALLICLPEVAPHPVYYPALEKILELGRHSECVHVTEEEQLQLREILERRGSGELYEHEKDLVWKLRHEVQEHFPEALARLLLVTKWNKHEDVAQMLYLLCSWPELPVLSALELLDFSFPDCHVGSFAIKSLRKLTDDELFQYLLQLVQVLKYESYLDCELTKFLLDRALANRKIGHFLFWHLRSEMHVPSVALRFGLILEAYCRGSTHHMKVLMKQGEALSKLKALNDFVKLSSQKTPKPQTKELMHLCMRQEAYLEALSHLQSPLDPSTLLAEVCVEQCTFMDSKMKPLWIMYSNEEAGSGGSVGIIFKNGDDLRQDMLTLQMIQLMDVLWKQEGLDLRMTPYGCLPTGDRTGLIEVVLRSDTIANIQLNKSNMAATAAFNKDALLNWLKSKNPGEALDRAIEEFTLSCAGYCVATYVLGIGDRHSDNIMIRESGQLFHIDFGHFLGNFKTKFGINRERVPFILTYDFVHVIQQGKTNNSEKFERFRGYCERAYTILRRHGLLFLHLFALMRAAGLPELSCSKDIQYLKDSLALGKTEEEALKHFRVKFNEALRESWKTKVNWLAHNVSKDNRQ
Sequence (P27986 whole entry partner): as the sequence (P27986 whole entry partner) above
Assay: Fluorescent (HTRF) determination of PI3 kinase enzyme activity, PI3Kδ
Assay type: biochemical
Settings: 100 nM (Examples 60-137)
Assay endpoint: inhibition at 0.1 µM

Some compounds with known inhibition at 0.1 µM results, for comparison:
CC(c1oc2cccc(F)c2c(=O)c1-c1ccccc1)n1nc(-c2ccc(OC(F)F)c(F)c2)c2c(N)ncnc21 (single isomer, unassigned) [Example 103] ... 0 to 25%
CC(c1oc2cccc(F)c2c(=O)c1-c1cccc(F)c1)n1nc(-c2ccc3c(c2)CNC3=O)c2c(N)ncnc21 (stereo not shown) ... 50 to 75%
CC(C)Oc1ccc(-c2nn(C(C)c3oc4cccc(N5CCOCC5)c4c(=O)c3-c3cccc(F)c3)c3ncnc(N)c23)cc1F (stereo not shown) ... 0 to 25%
CC(c1oc2cccc(F)c2c(=O)c1-c1cccc(F)c1)n1nc(-c2ccc(CN3CCOCC3)s2)c2c(N)ncnc21 (stereo not shown) ... 25 to 50%

Asked: GET /values?readout=inhibition at 0.1 µM&item= Cc1c2ccc(-c3nn(C(C)c4oc5cccc(F)c5c(=O)c4-c4cccc(F)c4)c4ncnc(N)c34)cc2nn1C (stereo not shown)
Given back: 50 to 75%

Asked: Please do the same for CC(c1oc2cccc(F)c2c(=O)c1-c1ccc(F)cc1)n1cnc2c(N3CCOCC3)ncnc21 (stereo not shown) as well.
Given back: 25 to 50%

Asked: Please do the same for CC(Nc1ncnc2[nH]cnc12)c1oc2cccc(F)c2c(=O)c1-c1ccccc1F (stereo not shown) as well.
Given back: 25 to 50%
